- Target or system: T1, human ASGR-1 (human, UniProt P07306 1-291)
- T1 construct: Stably expressed on CHO-S cells (CHO-S:huASGR-1); The method text says human or mouse ASGR-1 cells were used; also called huASGR-1; hASGR-1
- T1 sequence: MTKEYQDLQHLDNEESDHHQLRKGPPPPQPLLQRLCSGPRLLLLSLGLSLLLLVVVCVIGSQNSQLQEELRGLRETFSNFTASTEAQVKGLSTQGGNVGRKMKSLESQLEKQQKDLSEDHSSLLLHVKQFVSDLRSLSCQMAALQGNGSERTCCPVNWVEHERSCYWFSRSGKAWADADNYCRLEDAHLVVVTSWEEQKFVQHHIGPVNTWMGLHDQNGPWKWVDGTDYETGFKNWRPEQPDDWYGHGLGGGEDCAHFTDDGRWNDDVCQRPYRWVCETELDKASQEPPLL
- Test details: FACS ligand blocking on CHO-S ASGR-1 cells; labelled ligand biotin-GalNAc-PAA (synthetic sugar)
Reported endpoint: IC50 (nM)
Numbers only, in nM.

1. 184E7 (antibody, V domains shown) VH: QVQLVQSGAEVKTPGASVKVSCRASGYTFTSYNMHWVRQVPGQGLEWMGWINPNNGGSNYTQKFQGRVTMTRDTSISTAYMELSRLRSDDTAVYYCARKFGDWGQGTLVTVSS VL: DIQMTQSPSSRSASIGERVTITCRASQGISNYLAWIQQKPGTAPKSLIYAASSLQSGVSSRFSGSGFGTDFTITISSVQREDFATYYCQQYNGYPFTFGHGTKVDIK ... 10
2. 197G3 (antibody, V domains shown) VH: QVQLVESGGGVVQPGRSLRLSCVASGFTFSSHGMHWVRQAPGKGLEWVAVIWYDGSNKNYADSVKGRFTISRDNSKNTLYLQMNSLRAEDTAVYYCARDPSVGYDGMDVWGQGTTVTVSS VL: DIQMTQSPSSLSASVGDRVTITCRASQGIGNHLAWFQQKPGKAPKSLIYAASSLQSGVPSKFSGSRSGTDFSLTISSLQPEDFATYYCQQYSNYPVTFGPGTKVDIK ... 15
3. 48B12 (antibody, V domains shown) VH: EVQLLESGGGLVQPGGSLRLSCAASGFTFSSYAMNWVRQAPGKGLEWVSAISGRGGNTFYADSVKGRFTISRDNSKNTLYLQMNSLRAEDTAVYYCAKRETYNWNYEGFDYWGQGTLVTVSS VL: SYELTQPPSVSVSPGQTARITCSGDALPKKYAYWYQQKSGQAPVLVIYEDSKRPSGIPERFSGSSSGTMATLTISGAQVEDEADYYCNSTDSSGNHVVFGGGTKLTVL ... 86
4. 191G10 (antibody, V domains shown) VH: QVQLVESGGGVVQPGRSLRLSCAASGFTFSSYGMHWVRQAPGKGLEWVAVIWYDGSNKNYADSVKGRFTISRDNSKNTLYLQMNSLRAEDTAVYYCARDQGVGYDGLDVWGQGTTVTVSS VL: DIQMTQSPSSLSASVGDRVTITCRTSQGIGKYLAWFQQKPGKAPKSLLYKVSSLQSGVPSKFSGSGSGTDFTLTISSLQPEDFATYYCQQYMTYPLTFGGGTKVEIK ... 56
5. 190F8 (antibody, V domains shown) VH: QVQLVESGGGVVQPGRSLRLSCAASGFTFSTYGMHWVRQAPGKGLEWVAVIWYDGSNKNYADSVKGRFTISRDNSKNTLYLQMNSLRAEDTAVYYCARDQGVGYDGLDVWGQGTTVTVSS VL: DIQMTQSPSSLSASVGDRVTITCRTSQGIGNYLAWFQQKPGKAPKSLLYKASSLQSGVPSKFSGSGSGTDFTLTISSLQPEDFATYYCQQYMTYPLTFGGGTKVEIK ... 44

Could I get IC50 for every one of these entries?
1. 7E11 (antibody, V domains shown) VH: QVQLVESGGGVVQPGRSLRLSCAASGFTFSSFGMHWVRQAPGKGLEWVAIIWHDGSNKYYADSVKGRFTISRDNSNNTLYLQMSSLRAEDTAVYYCARDLSMGGMDVWGQGTTVTVSS VL: DIQMTQSPSSLSASVGDRVTIACRASQNIISYLNWYQQKPGKAPKFLIYTASSLQSGVPSRFSGSGSGTDFTLTISSLQPEDFAIYYCQQTYSTPLTFGGGTKVEIK
2. 7F4 (antibody, V domains shown) VH: QLQLQESGPGLVKPSETLSLTCTVSGGSISRSSYYWGWIRQPPGKGLEWIGNIYYSGATYYNPSLKSRVTISVDTSTNQFSLKLSSVTAADTAVYYCARHSGSWSLDYWGQGTLVTVSS VL: DIQMTQSPSSLSASVGDRVTITCRTSQGIRNDLGWYQQKPGKAPKRLIYAASNLQSGVPSRFSGSGSGTEFTLTISSLQPEDFATYYCLQHSAYPLTFGGGTKVEIK
3. 4B1 (antibody, V domains shown) VH: QVQLQESGPGLVKPSETLSLTCSVSGDSISSYSWSWIRQPAGKGLEWIGRIYTSGSTNYIPSLKSRITMSVDTSKKQFSLKLSSVTAADTAVYYCARDLKSSGCLFFDYWGQGTLVTVSS VL: DIQMTQSPSSLSASVGDRVTITCRASHTIRTYLNWYQQKPGKAPKLLIYAASSLQSGVPSRINGSGSGTDFTLTITNLQPEDFATYYCQQSYNISFTFGPGTKVDIK
4. 194A4 (antibody, V domains shown) VH: QVQLVQSGTEVKKPGASLKVSCKASGYTFTVYYLNWVRQAPGQGLEWMGWINPNSGGTNYAQKFQGRVTMTRDTSISTAYMELSRLRSDDTAVYYCARGYDILTGWGQGTLVTVSS VL: EIVLTQSPGTLSLSPGERATLSCRASRGVSNIYLAWYQQKPGQAPRLLIYGASNRATGIPDRFSGSGSGTDFTLTISRLEPEDFAVYYCQHNDYSMFTFGPGTKVDIK

1: 40; 2: 0.24; 3: 42; 4: 48

Cited source: patent US20190248902A1
